Origin of measurements: ChEMBL document CHEMBL4000180

# system name: Autotaxin (Homo sapiens, UniProt Q13822)
# test name: Inhibition of human ATX expressed in HEK293 Flp-In cells using LPC as substrate measured every 30 sec for 90 mins by fluorescence assay
# Assay type: cell-based
# study conditions: read-out: IC50
IC50 for assorted molecules

Some solved cases for reference:
COc1cccc2c1c(Sc1cccc(C(=O)O)n1)c(C)n2-c1cnn(C)c1
> 30 µM
Cc1c(Sc2cccc(C(=O)O)n2)c2ccc(Cl)cc2n1C1CCCC1
> 2.8 µM

Enquiry: So what does the record say about IC50 for Cc1[nH]c2cccc(C)c2c1Sc1cccc(C(=O)O)n1 ?
Return: > 8 µM
